Test system: Trypanosoma cruzi
Test: Trypanosoma cruzi phosphomannomutase and mannose-1-phosphate guanylyltransferase assay
Format: functional
Design: scale not given: direction of the effect not stated beside the values
Conditions: 10 µM
Readout Kind: Percent Effect (%)

# Compound, Assayed Target, Readout Units, Reported
records = [
    ("Cc1cnn(CC2CCCCN2CC(=O)Nc2c(C)n[nH]c2C)c1 (stereo unspecified)", "Trypanosoma cruzi", "%", -4.62),
    ("CCNC(=O)N1CCCC(c2noc(CC)n2)C1 (stereo unspecified)", "Trypanosoma cruzi", "%", 4.6),
    ("Cc1cc2cc(C(=O)N3CC[C@H](O)[C@]4(CCCO4)C3)ccc2o1", "Trypanosoma cruzi", "%", 2.17),
    ("CNC(=O)c1cc2c(nc1NCC1CC1)CCN(c1ccncn1)CC2", "Trypanosoma cruzi", "%", -1.57),
    ("CC(=O)N1CCOCC2(CCN(Cc3ccc(C)s3)CC2)C1", "Trypanosoma cruzi", "%", 6.37),
    ("COc1nc(C)c(C(=O)N(C)Cc2nc(-c3ccccn3)no2)s1", "Trypanosoma cruzi", "%", 4.97),
    ("CN(C)CCN1CCCC12CCN(C(=O)c1cnccn1)CC2", "Trypanosoma cruzi", "%", 2.81),
    ("O=C(CCNc1ncccn1)N1CCCC(n2ccnc2)C1 (stereo unspecified)", "Trypanosoma cruzi", "%", -2.77),
    ("O=C(NCc1ccccc1-n1cccn1)N1CCN2CCCCC2C1 (stereo unspecified)", "Trypanosoma cruzi", "%", 0.803),
    ("CS(=O)(=O)N1CCC2(CC1)CC(CC(=O)NC1CC1)c1ccccc12 (stereo unspecified)", "Trypanosoma cruzi", "%", 2.04),
    ("Cc1nc(CN2CCC(CNC(=O)Nc3ccccn3)CC2)oc1C", "Trypanosoma cruzi", "%", -1.27),
]

----------
Species: Homo sapiens
Assay: To identify inhibition of the IFN signalling (Jak-Stat) pathway via expression of an eGFP reporter gene under the control of an IFN-stimulated response element (ISRE) containing MxA promoter.
Type: functional
Parameters: scale not given: direction of the effect not stated beside the values
Conditions: 30 µM
Percent Effect for assorted compounds

# Compound, Percent Effect
measured = [
    ("CC(C)NC(=O)Nc1ccc(CNCc2cccc(C#N)c2)cc1", "0.521%"),
    ("CC(C(=O)N1CCCN(c2ncccc2C#N)CC1)n1cccn1 (configuration not stated)", "3.06%"),
    ("Cc1cn2c(n1)CCC(NC(=O)c1c[nH]c(C)n1)C2 (configuration not stated)", "17.2%"),
    ("COc1ccc(N2CCC(C(=O)/N=c3/[nH]ccs3)CC2)nn1", "44.8%"),
    ("COc1c(CNCc2ccc(CN(C)C)cc2)c(C(C)C)nn1C", "11.8%"),
    ("CCc1nc2n(n1)CC(NCC(=O)Nc1ccc(Cl)cn1)CC2 (configuration not stated)", "12.9%"),
    ("CN(C)C[C@H]1OC[C@@H]2CCN(S(=O)(=O)c3cccs3)C[C@@H]21", "0.627%"),
    ("Cc1ccc2cc(CNCCCN3CCOCC3)c(=O)[nH]c2c1", "12%"),
    ("CCC(C)N(C)S(=O)(=O)c1ccc(CCNC(C)=O)s1 (configuration not stated)", "10.4%"),
    ("CC(C)c1nc2n(n1)CC(NCc1nnnn1C1CC1)CC2 (configuration not stated)", "9.98%"),
    ("CC(=O)N1CCCn2nc(CNS(=O)(=O)c3cc(C)cs3)cc2C1", "0.293%"),
    ("Cc1nc(C)n(CC2CCCN2Cc2nc(N)c3ccccc3n2)n1 (configuration not stated)", "8.71%"),
]

----------
Species on record: Homo sapiens
Experiment: To identify inhibition of the IFN signalling (Jak-Stat) pathway via expression of an eGFP reporter gene under the control of an IFN-stimulated response element (ISRE) containing MxA promoter.
Format: functional
Design: scale not given: direction of the effect not stated beside the values
Conditions: 30 µM
Percent Effect for assorted compounds

# Compound, Readout Units, Percent Effect
rows = [
    ("Cc1cnn(CCNCC(=O)NCC2(c3ccccc3)CCC2)c1", "%", 11.5),
    ("Cc1cc(C2CCCN2CCCc2nc3ccccc3o2)on1 (stereo not given)", "%", 2.07),
    ("COc1ccc(CN2CCN(C(C)c3nc(C4CC4)no3)CC2)cc1 (stereo not given)", "%", 26.9),
    ("c1ccc(CN2CCc3nnc(CN4CCCCC4)n3CC2)nc1", "%", 0.921),
    ("CCOCC(O)CN1CCN(C(=O)C2CC2)CC1 (stereo not given)", "%", 10.7),
    ("Cc1[nH]ncc1C(=O)N1CCCC(n2cncn2)C1 (stereo not given)", "%", 9.83),
    ("Cn1cc(CN2CCC3(CC(=O)N(c4ccc5c(c4)OCO5)C3)C2)cn1 (stereo not given)", "%", 4.19),
    ("O=C(CO)N1C[C@H]2CC[C@@H]1CN(C1Cc3ccccc3C1)C2", "%", 3.96),
    ("NC(=O)CN1CCC(NC(=O)Nc2nccs2)CC1", "%", 5.92),
    ("COc1cccc2c1ccn2CCC(=O)NCCCC(=O)O", "%", -6.02),
    ("c1cnnc(N2CCCC2CNCc2nc(-c3ccsc3)no2)c1 (stereo not given)", "%", -10.2),
    ("O=C(O)c1cc(NS(=O)(=O)c2cccc(Cl)c2F)ccc1Cl", "%", 23.4),
    ("CN(CCCOc1ccccc1)C(=O)CN1CCc2cncnc2C1", "%", -5.43),
    ("CCn1nccc1CNC(=O)C1CCCC1", "%", -1.06),
    ("c1ccc(CN2CCOCC3(CCN(C4CCOCC4)C3)C2)cc1 (stereo not given)", "%", 8.96),
    ("CC(C)c1ncc2c(n1)CN(Cc1ccc(C(N)=O)cc1)CC2", "%", 11.1),
    ("CN(Cc1noc(C2CC2)n1)C1CCN(Cc2nnc(C3CC3)o2)C1 (stereo not given)", "%", 20.4),
    ("CCc1nc(CN2CCN(C(=O)COCc3ccccc3)CC2)no1", "%", -6.99),
    ("CC(C)NC(=O)C1CN(C(=O)c2ccco2)CC12CCOCC2 (stereo not given)", "%", -3.41),
    ("Cc1ccc(C(=O)N2CCC3(CC2)COC(COc2ccccn2)C3)o1 (stereo not given)", "%", -10.8),
    ("Cc1ccccc1OCCC(=O)N1CCCC(n2cncn2)C1 (stereo not given)", "%", 0.995),
    ("Cn1ncc(C(=O)N2CCCC(n3cccn3)C2)c1C1CC1 (stereo not given)", "%", 8.56),
    ("CN(C)CC1CN(Cc2ccc3c(c2)OCO3)Cc2nccn2C1 (stereo not given)", "%", 12.4),
    ("Cc1noc(C2CCCN(C(=O)c3ccc(Br)cc3F)C2)n1 (stereo not given)", "%", -5.04),
    ("CCn1nc(C)c2ccn(CC(=O)NC3CCCC3)c(=O)c21", "%", 20.1),
    ("CCOC(=O)NC(CNC(=O)c1ccccn1)CC(C)C (stereo not given)", "%", -2.89),
    ("O=C(c1cc[nH]n1)N1CCCC(c2cccc(-n3ccnc3)n2)C1 (stereo not given)", "%", 13.7),
    ("Cc1nccn1-c1cc(CNC(=O)CCC2CCCO2)ccn1 (stereo not given)", "%", 3.69),
    ("CN1CC(c2ccccc2)CC12CCN(C(=O)c1c(Cl)cnn1C)CC2 (stereo not given)", "%", -5.06),
    ("Cc1cc(C)n(CC2CCCCN2C(=O)c2cnn(C)c2)n1 (stereo not given)", "%", 5.12),
]

----------
Target: Tyrosyl-tRNA synthetase, putative (Trypanosoma cruzi (strain CL Brener)) (UniProt Q4DSP6)
Sequence (whole entry): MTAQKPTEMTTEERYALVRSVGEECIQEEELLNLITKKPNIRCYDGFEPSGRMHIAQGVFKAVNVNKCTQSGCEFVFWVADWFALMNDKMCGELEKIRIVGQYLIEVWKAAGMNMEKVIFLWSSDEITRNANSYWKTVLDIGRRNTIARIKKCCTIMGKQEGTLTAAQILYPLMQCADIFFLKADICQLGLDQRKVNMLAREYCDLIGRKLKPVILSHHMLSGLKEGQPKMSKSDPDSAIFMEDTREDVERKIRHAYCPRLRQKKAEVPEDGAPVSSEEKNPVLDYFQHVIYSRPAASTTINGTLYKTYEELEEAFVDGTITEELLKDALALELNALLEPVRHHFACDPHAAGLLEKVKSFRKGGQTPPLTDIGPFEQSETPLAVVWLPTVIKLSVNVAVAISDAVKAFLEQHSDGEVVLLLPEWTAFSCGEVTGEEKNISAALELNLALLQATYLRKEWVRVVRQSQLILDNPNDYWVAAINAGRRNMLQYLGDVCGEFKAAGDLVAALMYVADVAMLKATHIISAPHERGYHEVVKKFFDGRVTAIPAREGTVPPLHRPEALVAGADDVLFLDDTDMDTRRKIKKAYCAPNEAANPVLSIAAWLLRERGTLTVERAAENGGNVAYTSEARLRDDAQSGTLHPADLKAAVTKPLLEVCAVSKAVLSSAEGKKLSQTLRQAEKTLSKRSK
Assay: Trypanosoma cruzi tyrosyl tRNA synthetase (TcYRS) SOP
Type: functional
Parameters: scale not given: direction of the effect not stated beside the values
Settings: 30 µM
Label true (1) when Percent Effect is strictly below 10%; at or above that, label false (0).

# Compound, Assigned Category
measured = [
    ("Cn1cc(C2COC3(CCN(C(=O)c4ccc(F)cc4)CC3)C2)cn1 (configuration not stated)", "false (0)"),
    ("COc1ccccc1N1CCC(CNCc2cccc(OC)c2OC)C1 (configuration not stated)", "false (0)"),
    ("OC(CN1CCN(Cc2ccc(F)cc2)CC1)C1CC1 (configuration not stated)", "false (0)"),
    ("CCc1nnc2n1CCN(Cc1nc(-c3ccoc3)no1)C2", "false (0)"),
    ("CC(C)N1CCCC2(CCN(C(=O)CCCn3ccnc3)C2)C1=O (configuration not stated)", "false (0)"),
    ("Cc1ncc2c(n1)CN(CCCc1nc3ccccc3o1)CC2", "false (0)"),
    ("CCOc1ccc(S(=O)(=O)NC(=O)CCC2CCCO2)cc1 (configuration not stated)", "false (0)"),
    ("CN(Cc1cnn(C)c1)C(=O)NC1CCC(O)CC1 (configuration not stated)", "true (1)"),
    ("Cc1n[nH]c(C2CN(CC(=O)NCCc3ccsc3)CCO2)n1 (configuration not stated)", "false (0)"),
    ("Cc1ccc(NC(=O)CNc2cccc3c2CCCC3)c(Br)c1", "true (1)"),
    ("Cc1cc(C(=O)O)cc(S(=O)(=O)Nc2ccc3c(c2)OCO3)c1C", "false (0)"),
]
